tested on: MDR1 (P-gp); experiment: Apparent permeability from basolateral to apical side of MDCK cells expressing MDR1 at 10 uM; type: ADME, cell-based, Canis lupus familiaris; settings: dog
MEASUREMENT LABEL: Papp B→A at 10 µM

INSERT INTO results (mol, measurement_label, meas_value) VALUES
  ('O=C(c1ccccc1C(F)(F)F)N(CC1CCC1)[C@H]1CCNC1', 'Papp B→A at 10 µM', '57 ×10⁻⁶ cm/s');

----------
pIC50: −log10 of the molar value.
Reported values: pIC50 for UniProt:P10635, one per item.
Sequence (P10635 whole entry): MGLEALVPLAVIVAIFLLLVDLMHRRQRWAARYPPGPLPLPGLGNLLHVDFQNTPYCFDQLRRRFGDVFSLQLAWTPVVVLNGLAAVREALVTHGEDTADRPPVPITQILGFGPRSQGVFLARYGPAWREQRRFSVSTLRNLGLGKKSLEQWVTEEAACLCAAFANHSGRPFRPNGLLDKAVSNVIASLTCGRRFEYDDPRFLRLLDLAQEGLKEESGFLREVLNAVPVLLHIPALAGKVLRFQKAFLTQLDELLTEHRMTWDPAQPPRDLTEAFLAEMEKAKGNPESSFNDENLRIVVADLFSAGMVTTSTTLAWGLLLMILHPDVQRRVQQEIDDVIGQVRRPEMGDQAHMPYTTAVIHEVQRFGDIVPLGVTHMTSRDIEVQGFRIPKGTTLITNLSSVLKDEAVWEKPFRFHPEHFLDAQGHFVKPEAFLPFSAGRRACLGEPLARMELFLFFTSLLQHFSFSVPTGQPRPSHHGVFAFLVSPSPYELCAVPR
MEASUREMENT LABEL: pIC50

INSERT INTO results (mol, subject_of_test, operator, meas_value) VALUES
  ('CSc1ccccc1C(=O)N(C1CCC1)[C@H]1CCNC1', 'UniProt:P10635', '<', 4.52),
  ('CCSc1ccccc1C(=O)N(CC1CCC1)[C@H]1CCNC1', 'UniProt:P10635', '=', 6.32),
  ('O=C(c1ccccc1C(F)(F)F)N(c1ccccc1)[C@H]1CCNC1', 'UniProt:P10635', '<', 5.52),
  ('O=C(c1ccccc1Oc1ccccc1)N(CC1CCC1)[C@H]1CCNC1', 'UniProt:P10635', '=', 7.19);

----------
molecular target: Cytochrome P450 2C19 (Homo sapiens, UniProt P33261)
Sequence (P33261 whole entry): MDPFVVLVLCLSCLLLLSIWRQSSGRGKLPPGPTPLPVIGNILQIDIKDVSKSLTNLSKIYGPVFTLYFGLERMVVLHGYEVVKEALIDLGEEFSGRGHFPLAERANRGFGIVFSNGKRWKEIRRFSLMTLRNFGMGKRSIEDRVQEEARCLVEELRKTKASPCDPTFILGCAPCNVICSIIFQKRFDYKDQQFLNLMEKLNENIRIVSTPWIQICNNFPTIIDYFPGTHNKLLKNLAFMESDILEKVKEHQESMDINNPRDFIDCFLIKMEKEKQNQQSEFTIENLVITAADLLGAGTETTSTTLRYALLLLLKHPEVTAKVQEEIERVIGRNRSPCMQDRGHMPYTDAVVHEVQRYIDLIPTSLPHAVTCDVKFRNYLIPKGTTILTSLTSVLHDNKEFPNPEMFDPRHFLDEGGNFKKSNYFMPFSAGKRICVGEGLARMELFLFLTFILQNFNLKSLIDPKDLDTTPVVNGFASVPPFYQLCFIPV
MEASUREMENT LABEL: IC50

INSERT INTO measurements (mol, meas_value) VALUES
  ('O=C(c1ccccc1C(F)(F)F)N(CC1CCC1)[C@H]1CCNC1', '> 30 µM');

----------
tested on: MDR1 (P-gp); assay: Apparent permeability from apical to basolateral side of MDCK cells expressing MDR1 at 10 uM; format: ADME, cell-based, Canis lupus familiaris; settings: dog
MEASUREMENT LABEL: Papp A→B at 10 µM (×10⁻⁶ cm/s)

INSERT INTO measurements (mol, subject_of_test, measurement_label, unit_name, meas_value) VALUES
  ('O=C(c1ccccc1C(F)(F)F)N(CC1CCC1)[C@H]1CCNC1', 'MDR1 (P-gp)', 'Papp A→B at 10 µM', '×10⁻⁶ cm/s', 11);

----------
target: Sodium-dependent noradrenaline transporter (Homo sapiens, UniProt P23975); test: Displacement of [3H]nisoxetine from human recombinant NET expressed in HEK293 cells by scintillation proximity assay
Sequence (P23975 whole entry): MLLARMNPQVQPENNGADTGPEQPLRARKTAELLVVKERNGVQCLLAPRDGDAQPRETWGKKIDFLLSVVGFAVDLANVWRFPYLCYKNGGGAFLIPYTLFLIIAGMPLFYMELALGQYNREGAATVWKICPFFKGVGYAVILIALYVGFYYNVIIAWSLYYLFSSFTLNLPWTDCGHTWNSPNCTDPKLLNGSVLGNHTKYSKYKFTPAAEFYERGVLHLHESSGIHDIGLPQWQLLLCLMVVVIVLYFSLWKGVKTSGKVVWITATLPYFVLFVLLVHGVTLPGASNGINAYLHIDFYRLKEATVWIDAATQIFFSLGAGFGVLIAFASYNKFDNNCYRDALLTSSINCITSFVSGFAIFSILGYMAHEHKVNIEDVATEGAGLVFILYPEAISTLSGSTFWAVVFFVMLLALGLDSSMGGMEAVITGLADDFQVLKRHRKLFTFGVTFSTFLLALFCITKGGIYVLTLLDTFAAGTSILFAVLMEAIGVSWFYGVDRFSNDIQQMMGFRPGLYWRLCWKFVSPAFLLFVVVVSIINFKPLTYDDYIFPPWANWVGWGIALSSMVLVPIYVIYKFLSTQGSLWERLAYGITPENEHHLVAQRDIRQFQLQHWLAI
Checkbox rule: Ki lower than 20 nM = criterion met; Ki not lower than 20 nM = criterion not met.

INSERT INTO assay_data (mol, subject_of_test, label) VALUES
  ('CC(C)c1ccccc1C(=O)N(C1CCC1)[C@H]1CCNC1', 'Sodium-dependent noradrenaline transporter (Homo sapiens, UniProt P23975)', 'criterion not met'),
  ('CCc1ccccc1C(=O)N(CC1CCC1)[C@H]1CCNC1', 'Sodium-dependent noradrenaline transporter (Homo sapiens, UniProt P23975)', 'criterion not met'),
  ('O=C(c1ccccc1C(F)(F)F)N(CC1CCCC1)[C@H]1CCNC1', 'Sodium-dependent noradrenaline transporter (Homo sapiens, UniProt P23975)', 'criterion not met'),
  ('O=C(c1ccccc1C(F)(F)F)N(C1CCC1)[C@H]1CCNC1', 'Sodium-dependent noradrenaline transporter (Homo sapiens, UniProt P23975)', 'criterion not met'),
  ('CC(C)c1ccccc1C(=O)N(C1CCCC1)[C@H]1CCNC1', 'Sodium-dependent noradrenaline transporter (Homo sapiens, UniProt P23975)', 'criterion not met'),
  ('CC(C)c1ccccc1C(=O)N(CC1CCC1)[C@H]1CCNC1', 'Sodium-dependent noradrenaline transporter (Homo sapiens, UniProt P23975)', 'criterion met'),
  ('O=C(c1ccccc1C1CCCC1)N(CC1CCC1)[C@H]1CCNC1', 'Sodium-dependent noradrenaline transporter (Homo sapiens, UniProt P23975)', 'criterion met'),
  ('CSc1ccccc1C(=O)N(c1ccccc1)[C@H]1CCNC1', 'Sodium-dependent noradrenaline transporter (Homo sapiens, UniProt P23975)', 'criterion met'),
  ('O=C(c1ccccc1Cl)N(CC1CCC1)[C@H]1CCNC1', 'Sodium-dependent noradrenaline transporter (Homo sapiens, UniProt P23975)', 'criterion met'),
  ('O=C(c1ccccc1Oc1ccccc1)N(C1CCC1)[C@H]1CCNC1', 'Sodium-dependent noradrenaline transporter (Homo sapiens, UniProt P23975)', 'criterion met'),
  ('CC(C)c1ccccc1C(=O)N(CC1CC1)[C@H]1CCNC1', 'Sodium-dependent noradrenaline transporter (Homo sapiens, UniProt P23975)', 'criterion not met'),
  ('CCSc1ccccc1C(=O)N(CC1CCC1)[C@H]1CCNC1', 'Sodium-dependent noradrenaline transporter (Homo sapiens, UniProt P23975)', 'criterion met'),
  ('O=C(c1ccccc1Oc1ccccc1)N(CC1CCC1)[C@H]1CCNC1', 'Sodium-dependent noradrenaline transporter (Homo sapiens, UniProt P23975)', 'criterion met'),
  ('CSc1ccccc1C(=O)N(CC1CCC1)[C@@H]1CCNC1', 'Sodium-dependent noradrenaline transporter (Homo sapiens, UniProt P23975)', 'criterion not met'),
  ('O=C(c1ccccc1C(F)(F)F)N(CC1CCC1)[C@@H]1CCNC1', 'Sodium-dependent noradrenaline transporter (Homo sapiens, UniProt P23975)', 'criterion not met'),
  ('CSc1ccccc1C(=O)N(CC1CCC1)[C@H]1CCNC1', 'Sodium-dependent noradrenaline transporter (Homo sapiens, UniProt P23975)', 'criterion met'),
  ('CCOc1ccccc1C(=O)N(CC1CCC1)[C@H]1CCNC1', 'Sodium-dependent noradrenaline transporter (Homo sapiens, UniProt P23975)', 'criterion not met'),
  ('Cc1ccccc1C(=O)N(CC1CCC1)[C@H]1CCNC1', 'Sodium-dependent noradrenaline transporter (Homo sapiens, UniProt P23975)', 'criterion not met'),
  ('CN(C(=O)c1ccccc1Oc1ccccc1)[C@H]1CCNC1', 'Sodium-dependent noradrenaline transporter (Homo sapiens, UniProt P23975)', 'criterion not met'),
  ('CCN(C(=O)c1ccccc1Oc1ccccc1)[C@H]1CCNC1', 'Sodium-dependent noradrenaline transporter (Homo sapiens, UniProt P23975)', 'criterion met'),
  ('O=C(c1ccccc1C(F)(F)F)N(c1ccccc1)[C@H]1CCNC1', 'Sodium-dependent noradrenaline transporter (Homo sapiens, UniProt P23975)', 'criterion not met'),
  ('O=C(c1ccccc1Oc1ccccc1)N(CC1CCC1)[C@@H]1CCNC1', 'Sodium-dependent noradrenaline transporter (Homo sapiens, UniProt P23975)', 'criterion not met'),
  ('O=C(C1CCC1)N(Cc1ccccc1C(F)(F)F)[C@H]1CCNC1', 'Sodium-dependent noradrenaline transporter (Homo sapiens, UniProt P23975)', 'criterion not met'),
  ('CC(C)CN(C(=O)c1ccccc1-c1ccccc1)[C@H]1CCNC1', 'Sodium-dependent noradrenaline transporter (Homo sapiens, UniProt P23975)', 'criterion not met'),
  ('CSc1ccccc1C(=O)N(C1CCC1)[C@H]1CCNC1', 'Sodium-dependent noradrenaline transporter (Homo sapiens, UniProt P23975)', 'criterion met'),
  ('CCCN(C(=O)c1ccccc1SC)[C@H]1CCNC1', 'Sodium-dependent noradrenaline transporter (Homo sapiens, UniProt P23975)', 'criterion not met'),
  ('CCCN(C(=O)c1ccccc1C(C)C)[C@H]1CCNC1', 'Sodium-dependent noradrenaline transporter (Homo sapiens, UniProt P23975)', 'criterion not met'),
  ('CC(C)c1ccccc1C(=O)N(CC1CCC1)[C@@H]1CCNC1', 'Sodium-dependent noradrenaline transporter (Homo sapiens, UniProt P23975)', 'criterion not met'),
  ('CSc1ccccc1C(=O)N(C1CCCC1)[C@H]1CCNC1', 'Sodium-dependent noradrenaline transporter (Homo sapiens, UniProt P23975)', 'criterion met'),
  ('CC(C)N(C(=O)c1ccccc1C(F)(F)F)[C@H]1CCNC1', 'Sodium-dependent noradrenaline transporter (Homo sapiens, UniProt P23975)', 'criterion not met'),
  ('CC(C)c1ccccc1C(=O)N(CC1CCCC1)[C@H]1CCNC1', 'Sodium-dependent noradrenaline transporter (Homo sapiens, UniProt P23975)', 'criterion met'),
  ('O=C(c1ccccc1C(F)(F)F)N(CC1CC1)[C@H]1CCNC1', 'Sodium-dependent noradrenaline transporter (Homo sapiens, UniProt P23975)', 'criterion not met'),
  ('CC(C)CN(C(=O)c1ccccc1Oc1ccccc1)[C@H]1CCNC1', 'Sodium-dependent noradrenaline transporter (Homo sapiens, UniProt P23975)', 'criterion met'),
  ('O=C(c1ccccc1C(F)(F)F)N(CC1CCC1)[C@H]1CCNC1', 'Sodium-dependent noradrenaline transporter (Homo sapiens, UniProt P23975)', 'criterion met');

Hello, the source for this data is ChEMBL document CHEMBL1153484, in case you need it.
